Origin of the recorded values: the supplement of paper PMC12494721

Below is a list of entries, each paired with its recorded fold change of Putrescine concentration value.
System: Klebsiella aerogenes DSM 30053
Test: fold change of Putrescine concentration vs plate DMSO controls (fold change (ratio)); higher = more amine produced, active = hit call of the paper (significant change in both replicates, either direction)
Details: incubation time: 27 h, anaerobic, 37 °C
Where a name gives a salt, the structure may show the parent alone.
The response must contain the number and no unit.

The examples below pair each entry with its known result.
{"MOLECULE": "Cc1c(C)c2c(c(C)c1O)CCC(C)(C(=O)O)O2 (configuration not stated) [Trolox] (20 µM)", "fold change of Putrescine concentration": 1.04}
{"MOLECULE": "CC1(C)S[C@@H]2[C@H](NC(=O)Cc3ccccc3)C(=O)N2[C@H]1C(=O)O [Benzylpenicillin sodium] (20 µM)", "fold change of Putrescine concentration": 1.04}
{"MOLECULE": "COc1ccccc1Oc1c(NS(=O)(=O)c2ccc(C(C)(C)C)cc2)nc(-c2ncccn2)nc1OCCO [Bosentan] (20 µM)", "fold change of Putrescine concentration": 1.05}
{"MOLECULE": "CN1CCC(=C2c3ccccc3CCc3cccnc32)CC1 [Azatadine maleate] (20 µM)", "fold change of Putrescine concentration": 1.01}
{"MOLECULE": "CCOC(=O)C1=C[C@@H](OC(CC)CC)[C@H](NC(C)=O)[C@@H](N)C1 [Oseltamivir phosphate] (20 µM)", "fold change of Putrescine concentration": 1}
{"MOLECULE": "O=c1[nH]cc(F)c(=O)[nH]1 [5-fluorouracil] (20 µM)", "fold change of Putrescine concentration": 0.961}
{"MOLECULE": "Cc1ccccc1C(=O)Nc1ccc(C(=O)N2CCCC(O)c3cc(Cl)ccc32)c(C)c1 (configuration not stated) [Tolvaptan] (20 µM)", "fold change of Putrescine concentration": 1.01}
{"MOLECULE": "CCC(=O)O[C@@H](O[P@](=O)(CCCCc1ccccc1)CC(=O)N1C[C@H](C2CCCCC2)C[C@H]1C(=O)O)C(C)C [Fosinopril] (20 µM)", "fold change of Putrescine concentration": 1.01}

Would you kindly look at the next entry?
Request: # query: fold change of Putrescine concentration of entry Nc1nnc(-c2cccc(Cl)c2Cl)c(N)n1 [Lamotrigine] (20 µM)
Response: 1.02

###

Test system: Klebsiella aerogenes DSM 30053
Assay: fold change of Histamine concentration vs plate DMSO controls (fold change (ratio)); higher = more amine produced, active = hit call of the paper (significant change in both replicates, either direction)
Conditions: incubation time: 27 h, anaerobic, 37 °C
Counter-ions that a name gives are not always drawn.
Below is a list of entries, each paired with its recorded fold change of Histamine concentration value.
The response must contain the number and no unit.

{"MOLECULE": "C[C@]12C=CC(=O)C=C1CC[C@H]1[C@@H]3C[C@@H](O)[C@](O)(C(=O)CO)[C@@]3(C)C[C@H](O)[C@@]12F [Triamcinolone] (20 µM)", "EXPERIMENTAL_TARGET": "Klebsiella aerogenes DSM 30053", "fold change of Histamine concentration": 0.954}
{"MOLECULE": "CCOc1ccccc1OCCN[C@H](C)Cc1ccc(OC)c(S(N)(=O)=O)c1 [(R)-Tamsulosin hydrochloride] (20 µM)", "EXPERIMENTAL_TARGET": "Klebsiella aerogenes DSM 30053", "fold change of Histamine concentration": 0.94}
{"MOLECULE": "CCCOc1ccccc1-c1nc2[nH]nnc2c(=O)[nH]1 [Zaprinast] (20 µM)", "EXPERIMENTAL_TARGET": "Klebsiella aerogenes DSM 30053", "fold change of Histamine concentration": 0.988}
{"MOLECULE": "Cc1c(O)c(=O)ccn1C [Deferiprone] (20 µM)", "EXPERIMENTAL_TARGET": "Klebsiella aerogenes DSM 30053", "fold change of Histamine concentration": 1.03}
{"MOLECULE": "C[C@@H]1[C@H](O)[C@@H](C)/C=C/C=C/C=C/C=C/C=C/C=C/C=C/[C@H](O[C@@H]2O[C@H](C)[C@@H](O)[C@H](N)[C@@H]2O)C[C@@H]2O[C@](O)(C[C@@H](O)C[C@@H](O)[C@H](O)CC[C@@H](O)C[C@@H](O)CC(=O)O[C@H]1C)C[C@H](O)[C@H]2C(=O)O [Amphotericin B] (20 µM)", "EXPERIMENTAL_TARGET": "Klebsiella aerogenes DSM 30053", "fold change of Histamine concentration": 1.01}

Would you kindly look at the next entry?
Request: What reported fold change of Histamine concentration corresponds to O=C(O)c1cc(-c2ccc(F)cc2F)ccc1O [Diflunisal] (20 µM) on Klebsiella aerogenes DSM 30053?
Response: 1.02

###

Test system: Escherichia coli IAI1
Experiment: fold change of Putrescine concentration vs plate DMSO controls (fold change (ratio)); higher = more amine produced, active = hit call of the paper (significant change in both replicates, either direction)
Settings: incubation time: 27 h, anaerobic, 37 °C
Structures can show the parent of a compound that is named as a salt.
Below is a list of entries, each paired with its recorded fold change of Putrescine concentration value.

The examples below pair each entry with its known result.
{"COMPOUND": "CCOC(=O)OC(C)OC1=C(C(=O)Nc2ccccn2)N(C)S(=O)(=O)c2ccccc21 (centres undefined) [Ampiroxicam] (20 µM)", "fold change of Putrescine concentration": "0.976 (inactive)"}
{"COMPOUND": "OCCOCCN1CCN(C2=Nc3ccccc3Sc3ccccc32)CC1 [Quetiapine hemifumarate] (20 µM)", "fold change of Putrescine concentration": "1.09 (inactive)"}
{"COMPOUND": "Cc1ccc(C(=O)c2ccc(CC(=O)O)n2C)cc1 [Tolmetin sodium salt dihydrate] (20 µM)", "fold change of Putrescine concentration": "0.949 (inactive)"}
{"COMPOUND": "O=C(O)[C@H]1/C(=C/CO)O[C@@H]2CC(=O)N21 [Clavulanate potassium salt] (20 µM)", "fold change of Putrescine concentration": "0.96 (inactive)"}

Request: # query: fold change of Putrescine concentration of entry CCN(CC)C(=O)c1cccnc1 [Nikethamide] (20 µM)
Response: 1.06 (inactive)

Request: # query: fold change of Putrescine concentration of entry O=C(c1ccccc1)c1ccc2n1CCC2C(=O)O (centres undefined) [Ketorolac tromethamine] (20 µM)
Response: 1.15 (inactive)

Request: # query: fold change of Putrescine concentration of entry CN1C(C(=O)Nc2ccccn2)=C(O)c2sccc2S1(=O)=O [Tenoxicam] (20 µM)
Response: 1.05 (inactive)

Request: # query: fold change of Putrescine concentration of entry Clc1cccc(Cl)c1NC1=NCCN1 [Clonidine hydrochloride] (20 µM)
Response: 0.995 (inactive)

Request: # query: fold change of Putrescine concentration of entry NC(=O)NC1NC(=O)NC1=O (centres undefined) [Allantoin] (20 µM)
Response: 1.1 (inactive)

###

Test system: Escherichia coli IAI1
Assay: fold change of Cadaverine concentration vs plate DMSO controls (fold change (ratio)); higher = more amine produced, active = hit call of the paper (significant change in both replicates, either direction)
Conditions: incubation time: 27 h, anaerobic, 37 °C
Structures can show the parent of a compound that is named as a salt.
Below is a list of entries, each paired with its recorded fold change of Cadaverine concentration value.

{"COMPOUND": "CC#CCn1c(N2CCC[C@@H](N)C2)nc2c1c(=O)n(Cc1nc(C)c3ccccc3n1)c(=O)n2C [Linagliptin] (20 µM)", "EXPERIMENTAL_TARGET": "Escherichia coli IAI1", "MEASURED_METRIC": "fold change of Cadaverine concentration", "RECORDED_RESULT": "0.983 (inactive)"}

Request: What reported fold change of Cadaverine concentration corresponds to C=CCc1ccc(OC)c(OC)c1 [Methyleugenol] (20 µM) on Escherichia coli IAI1?
Response: 0.988 (inactive)

Request: What reported fold change of Cadaverine concentration corresponds to CCn1cc(C(=O)O)c(=O)c2cc(F)c(N3CCNCC3)nc21 [Enoxacin] (20 µM) on Escherichia coli IAI1?
Response: 0.269 (active)

Request: What reported fold change of Cadaverine concentration corresponds to OC(CCN1CCCCC1)(c1ccccc1)C1CCCCC1 (stereo not drawn) [Trihexyphenidyl-D,L hydrochloride] (20 µM) on Escherichia coli IAI1?
Response: 0.697 (inactive)

Request: What reported fold change of Cadaverine concentration corresponds to Cc1ccc(=O)n(-c2ccccc2)c1 [Pirfenidone] (20 µM) on Escherichia coli IAI1?
Response: 1.01 (inactive)

Request: What reported fold change of Cadaverine concentration corresponds to CC=CC(=O)N(CC)c1ccccc1C [Crotamiton] (20 µM) on Escherichia coli IAI1?
Response: 0.967 (inactive)

Request: What reported fold change of Cadaverine concentration corresponds to C[C@@H]1CN(c2c(F)c(N)c3c(=O)c(C(=O)O)cn(C4CC4)c3c2F)C[C@H](C)N1 [Sparfloxacin] (20 µM) on Escherichia coli IAI1?
Response: 0.264 (active)

Request: What reported fold change of Cadaverine concentration corresponds to CNS(=O)(=O)Cc1ccc2[nH]cc(CCN(C)C)c2c1 [Sumatriptan succinate] (20 µM) on Escherichia coli IAI1?
Response: 1.03 (inactive)
